Just for reference, patent EP4786458A1 is where these values come from.

- Assay: Loss of tail withdrawal reflex (LOTWR) in rats, single intravenous injection, dose escalation for efficacy and severe adverse reactions
- Type: in vivo, SD rats
- Applied Conditions: rat, in vivo, single intravenous injection, minimum dose resulting in serious adverse reactions / minimum effective dose, class symbol, read-out: The safety therapeutic index
Property Name: selectivity ratio

IN: Recorded selectivity ratio of `Cc1ccc(NCC(=O)NCc2ccccc2)c(N(C)C)c1` , please.
OUT: ≤ 2

IN: Would you kindly repeat that for `Cc1ccc(OCC(=O)OCc2cccs2)cc1N(C)C` ?
OUT: ≤ 2

Continue with the next compound.
IN: Recorded selectivity ratio of `CN(C)c1cc(F)ccc1NCC(=O)OCc1cccs1` , please.
OUT: ≤ 2

----------
- Assay: Loss of tail withdrawal reflex (LOTWR) in rats, single intravenous injection, dose escalation for efficacy and severe adverse reactions
- Type: in vivo, SD rats
- Applied Conditions: rat, in vivo, single intravenous injection, minimum dose resulting in serious adverse reactions / minimum effective dose, class symbol, read-out: The safety therapeutic index
- Description: Using the loss of tail withdrawal reflex (LOTWR) in rats as an indicator, the potent analgesic effect of the compounds according to the present invention was evaluated. 1.1 Experimental animals: Adult male SD rats weighing between 220-300 g were selected for the experiment. The rats were housed in sawdust-bedded cages with a temperature of 25+1°C, humidity ranging from 40% to 60%, and a 12-hour light/12-hour dark cycle. Each cage contained no more than 5 rats, with free access to water and food. […]
The compounds listed here are annotated with their selectivity ratio.

IN: Recorded selectivity ratio of `Cc1ccc(NCC(=O)NCc2ccns2)c(N(C)C)c1` , please.
OUT: > 4

IN: Would you kindly repeat that for `Cc1ccc(NCC(=O)OCc2ccco2)c(N(C)C)c1` ?
OUT: 2 to 4

IN: Would you kindly repeat that for `Cc1ccc(NCC(=O)NCc2ccoc2)c(N(C)C)c1` ?
OUT: ≤ 2

Others:
IN: Recorded selectivity ratio of `Cc1ccc(OCC(=O)NCc2cccs2)c(N(C)C)c1` , please.
OUT: > 4

IN: Would you kindly repeat that for `Cc1cc(COC(=O)CNc2ccc(C)c(N(C)C)c2)n(C)n1` ?
OUT: > 4

IN: Would you kindly repeat that for `Cc1cc(C)cc(CNC(=O)CNc2ccc(C)cc2N(C)C)c1` ?
OUT: ≤ 2

IN: Would you kindly repeat that for `Cc1ccc(SCC(=O)OCc2ccco2)c(N(C)C)c1` ?
OUT: ≤ 2

IN: Would you kindly repeat that for `Cc1ccc(NCC(=O)OCc2ccnn2C)c(N(C)C)c1` ?
OUT: > 4

IN: Would you kindly repeat that for `Cc1ccc(NCC(=O)OCc2ccoc2)cc1N(C)C` ?
OUT: 2 to 4

IN: Would you kindly repeat that for `Cc1ccc(OCC(=O)NCc2ccsc2)c(N(C)C)c1` ?
OUT: 2 to 4

----------
The compounds listed here are annotated with their selectivity ratio.
- Assay: Loss of tail withdrawal reflex (LOTWR) in rats, single intravenous injection, dose escalation for efficacy and severe adverse reactions
- Format: in vivo, SD rats
- Applied Conditions: rat, in vivo, single intravenous injection, minimum dose resulting in serious adverse reactions / minimum effective dose, class symbol, read-out: The safety therapeutic index

Sample records with selectivity ratio:
IN: Recorded selectivity ratio of Cc1ccc(NCC(=O)NCc2ccno2)c(N(C)C)c1 [Example 9] , please.
OUT: > 4

IN: Would you kindly repeat that for Cc1ccc(NCC(=O)OCc2ccsc2)cc1N(C)C [Example 38] ?
OUT: ≤ 2

IN: Would you kindly repeat that for CN(C)c1ccccc1NCC(=O)OCc1cccs1 [Example 4] ?
OUT: > 4

Others:
IN: Recorded selectivity ratio of Cc1ccc(OCC(=O)OCc2ccco2)c(N(C)C)c1 [Example 23] , please.
OUT: ≤ 2

IN: Would you kindly repeat that for Cc1ccc(NCC(=O)NCc2ccns2)cc1N(C)C [Example 25] ?
OUT: 2 to 4

IN: Would you kindly repeat that for Cc1ccc(NCC(=O)NCc2cnsc2)c(N(C)C)c1 [Example 19] ?
OUT: 2 to 4

IN: Would you kindly repeat that for Cc1ccc(OCC(=O)OCc2cccs2)c(N(C)C)c1 [Example 6] ?
OUT: 2 to 4

IN: Would you kindly repeat that for Cc1ccc(NCC(=O)NCc2cc(C)nn2C)c(N(C)C)c1 [Example 31] ?
OUT: 2 to 4

IN: Would you kindly repeat that for Cc1ccc(SCC(=O)OCc2cccs2)c(N(C)C)c1 [Example 14] ?
OUT: 2 to 4

----------
The compounds listed here are annotated with their selectivity ratio.
- Assay: Loss of tail withdrawal reflex (LOTWR) in rats, single intravenous injection, dose escalation for efficacy and severe adverse reactions
- Format: in vivo, SD rats
- Applied Conditions: rat, in vivo, single intravenous injection, minimum dose resulting in serious adverse reactions / minimum effective dose, class symbol, read-out: The safety therapeutic index

IN: Recorded selectivity ratio of `Cc1ccc(NCC(=O)OCc2ccsc2)c(N(C)C)c1` , please.
OUT: > 4

IN: Would you kindly repeat that for `Cc1ccc(NCC(=O)OCc2ccno2)c(N(C)C)c1` ?
OUT: ≤ 2

IN: Would you kindly repeat that for `Cc1ccc(NCC(=O)OCc2cccs2)c(N(C)C)c1` ?
OUT: 2 to 4

IN: Would you kindly repeat that for `Cc1ccc(NCC(=O)OCc2ccoc2)c(N(C)C)c1` ?
OUT: ≤ 2

IN: Would you kindly repeat that for `Cc1ccc(OCC(=O)NCc2ccco2)c(N(C)C)c1` ?
OUT: > 4

IN: Would you kindly repeat that for `CN(C)c1ccccc1NCC(=O)OCc1ccsc1` ?
OUT: 2 to 4

IN: Would you kindly repeat that for `Cc1ccc(NCC(=O)NCc2ccco2)c(N(C)C)c1` ?
OUT: > 4

IN: Would you kindly repeat that for `Cc1ccc(NCC(=O)NCc2ccnn2C)c(N(C)C)c1` ?
OUT: ≤ 2

IN: Would you kindly repeat that for `Cc1ccc(NCC(=O)NCc2ccco2)cc1N(C)C` ?
OUT: ≤ 2

Others:
IN: Recorded selectivity ratio of `Cc1ccc(NCC(=O)OCc2cc(C)nn2C)c(N(C)C)c1` , please.
OUT: > 4
